target: T1, HCoV-229E S ectodomain (HCoV-229E); test: ELISA on coated S
T1 construct: range 17-1142
EC50 values for the binders below.
Please reply with the bare figure in µg/mL and do not write the unit itself.

// worked examples, EC50 included
# BINDER, RESULT_UNITS, EC50
measured = [
    ("fp.006 (antibody, V domains shown) VH: VQLVESGGGVVQPGGSLRLSCAASGFNFNNYALHWVRQAPGKGLEWVAIISYEARNKKYGVSVMGRFSISRDNSKSIMYLEMNSLRVEDTGVYYCARDLFLSDYDRSGYDPTRGGFDHWGQGTLVTVSS VL: EIVMTQSPATLSVSPGERATLSCRASQSVSSSLAWYQHRFGQAPRLLISGASTRATGIPGRFSGSGSGTEFTLTISSLQSEDVAVYYCQQYGDWPLVTFGGGTKVEIK", "µg/mL", 0.0349),
    ("fp.003 (antibody, V domains shown) VH: VQLVESGGGVVQPGTSLRLSCTASGFSFSNYAMHWVRQAPGKGLEWVAIISFDTRNKEFADSVKGRFSISRDNSKNSLNLQMNSLRPEDTGVYYCARDLFLSDYDSRGYEPSRGGFDYWGQGTLVTVSS VL: EIVMTQSPATLSVSPGERATLSCRASQSVSSSLAWYQQKLGQPPRLLIYGASTRATGIPARFSGSGSGTEFTLTISSLKSEDSAVYYCQQYNDWPLLSFGGGTKVEIK", "µg/mL", 0.0443),
]

# next binder below
// fp.005 (antibody, V domains shown) VH: VQLVESGGGVVQPGNSLRLSCAASGFRFNNYAMHWVRQAPGKGLEWVAIISYEARNEKYADSVKGRFSISRDNAKNTLYLQMNSLRADDTGVYYCARDLFLSDYDTSGYDRTRGGFDYWGQGALVTVSS VL: EIVMTQSPATLSVSPGERATLSCRASQSVSNGLAWYQHRFGQPPRLLIYGASTRATGIPTRFSGSGSGTEFTLTISSLQSEDFAVYYCQQYDDWPLITFGGGTKVEIK : EC50 value = 0.0416
